- procedureDetails: viability loss with induced miR-34 in A549 – imaging, A549 dox-inducible miR-34, nuclei and caspase counts, primary screen (AID 1347080); note: test concentration not given here
- conditionInfo: A549 miR-34 inducible, Hoechst nuclei count, 48 h; hits give low values; cell number ratio, induced over uninduced
The source made the active and inactive calls.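 Rule for the calls: active = compounds whose cell count with miR-34 switched on is under 0.7 times the count with it off; inactive = the rest.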
Let's look at some compounds and their measured fold change.

Sample records with fold change:
-- ask # input compound: `COC(=O)C(Cc1ccc(OCCn2c(=O)sc3cc(C(=O)c4ccccc4)ccc32)cc1)C(=O)OC` ; wanted: its fold change
-- reply 0.909 (inactive)

-- ask Further, for `CCCCC[C@H](O)/C=C/[C@H]1CC[C@H](O)[C@@H]1C/C=C\CCCC(=O)O` ?
-- reply 0.956 (inactive)

-- ask Continue with `CCCCC[C@H](O)/C=C/[C@H]1C(=O)C[C@H](O)[C@@H]1C/C=C\CCCC(=O)OC`
-- reply 0.892 (inactive)

-- ask Can you check `O=C1C(c2ccccn2)=[N+]([O-])c2ccccc21` next?
-- reply 0.941 (inactive)

-- ask What about `CCCCCS(=O)(=O)CCCCCCCCCCn1c(-c2ccc(O)cc2)c(C)c2cc(O)ccc21` ?
-- reply 1.01 (inactive)

***
-- ask Fill in the blank: the reported fold change of `CCCCCCC[C@H](O)/C=C/[C@H]1[C@H](O)CC(=O)[C@@H]1C/C=C\CCCC(=O)O` is ____.
-- reply 0.933 (inactive)

-- ask Another: `CC(=O)[C@H]1[C@H](C#N)C[C@H]2[C@@H]3CC=C4C[C@@H](O)CC[C@]4(C)[C@H]3CC[C@@]21C`
-- reply 1.01 (inactive)

-- ask Also, `CC(C)CC(=O)Nc1n[nH]c2c1CN(C(=O)C1CCN(C)CC1)C2(C)C` please.
-- reply 1.09 (inactive)

-- ask What about this compound? `Cc1cc(CN2CCN(c3c(Br)cnc4nc(-c5ccc(N6CCN(C)CC6)cc5)[nH]c34)CC2)no1`
-- reply 1.05 (inactive)

-- ask Now the same for Cc1noc(-c2ccc(CSCCC(=O)O)cc2)c1NC(=O)OC(C)c1ccccc1Cl (stereo unspecified)
-- reply 0.888 (inactive)

-- ask And the next one, `CCc1nc(-c2cccc(C)c2)c(-c2ccnc(NC(=O)c3ccccc3)c2)s1` ?
-- reply 0.974 (inactive)
